Tested on: HCT-116
protocol: Cytotoxicity against colon cancer cell lines, 24, 48 and 72 hours
Assay type: cell-based
condition_set: Homo sapiens; HCT-116, incubation 48 h
measured_metric: IC50 (µM)
Could you give me the number in µM? Just the number is fine.

GET /values?readout=IC50&item= CC1(C)C(=O)CC[C@]23C[C@]24CC[C@]2(C)C([C@]5(C)CC[C@H](C(C)(C)O)O5)[C@@H](O)C[C@@]2(C)C4CCC13 (stereo partly shown) [In, Argentantine A] 53.3

###

Test system: HCT-116
protocol: Cytotoxicity against colon cancer cell lines, 24, 48 and 72 hours
Type: cell-based
condition_set: HCT-116, incubation 72 h
measured_metric: IC50 (µM)
Could you give me the number in µM? Just the number is fine.

GET /values?readout=IC50&item= N.N.[Cl][Pt][Cl] [Cisplatin] 3.09

###

System: U251 (CNS)
protocol: Effect on cell lines (CI50, % growth inhibition)
Assay type: cell-based
condition_set: Homo sapiens, U-251, read-out: CI50 ± EE, μM U251 (CNS)
measured_metric: IC50 (µM)
Could you give me the number in µM? Just the number is fine.

Before answering, review these 3 worked examples.
{"columns": ["compound", "unit", "IC50"],
 "data": [
  ["CC1(C)C(=O)CC[C@]23C[C@]24CC[C@]2(C)C([C@]5(C)CC[C@H](C(C)(C)O)O5)[C@@H](O)C[C@@]2(C)C4CCC13 (stereo partly shown) [In, Argentantine A]", "µM", 27.3],
  ["CC(=O)O[C@H]1C[C@@]2(C)C3CCC4C(C)(C)C(=O)C=C[C@@]45C[C@@]35CC[C@]2(C)C1[C@]1(C)CC[C@H](C(C)(C)OC(C)=O)O1 (stereo partly shown) [Ic]", "µM", 58.4],
  ["CC(=O)O[C@H]1C[C@@]2(C)C3CCC4C(C)(C)/C(=N/O)CC[C@@]45C[C@@]35CC[C@]2(C)C1[C@]1(C)CC[C@H](C(C)(C)OC(C)=O)O1 (stereo partly shown) [Ig]", "µM", 21.4]
]}

Let us examine a further case.
Form: Entry = CC1(C)c2oncc2C[C@]23C[C@]24CC[C@]2(C)C([C@]5(C)CC[C@H](C(C)(C)O)O5)[C@@H](O)C[C@@]2(C)C4CCC13 (stereo partly shown) [Ii] | System = U251 (CNS) | IC50 = ____ 11.3

###

Test system: HCT-116
protocol: Cytotoxicity against colon cancer cell lines, 24, 48 and 72 hours
Assay type: cell-based
condition_set: Homo sapiens; HCT-116, incubation 24 h
measured_metric: IC50
The reply should read as a number followed by its unit.

GET /values?readout=IC50&item= CC1(C)C(=O)CC[C@]23C[C@]24CC[C@]2(C)C([C@]5(C)CC[C@H](C(C)(C)O)O5)[C@@H](O)C[C@@]2(C)C4CCC13 (stereo partly shown) [In, Argentantine A] 87.8 µM
